Numbers sourced from PubChem BioAssay (NCI).

- Test system: A498 renal
- procedure-text: NCI-60 one-dose screen, 48 h
- condition-label: 10 µM unless noted
Compounds without any hit were thinned out: in the full panel of roughly 83,000, 20% have a hit. Activity calls are given as the source filed them. The calls were made as follows: active = growth percent below 10; inactive = the rest.
Your response should consist of one outcome taken from active, inactive

Example cases with answers are listed next.
>>> class("CC(=O)OCC1OC(OC2=C(CC=C(Cl)Cl)C(=O)c3ccccc3C2=O)C(OC(C)=O)C(OC(C)=O)C1OC(C)=O (centres undefined)")
"inactive"
>>> class("CN1Cc2c(cc(CN3CCCCC3)n2C)C(c2ccc(Br)cc2)C1 (centres undefined)")
"inactive"
>>> class("COc1ccc(C(=O)c2sc3nc4c(c(C(F)(F)F)c3c2N)CN(C(C)=O)CC4)cc1OC")
"inactive"
>>> class("CNc1nc(C)c(-c2nc(Nc3cccc(S(N)(=O)=O)c3)ncc2F)s1")
"active"
>>> class("Brc1cccc(-c2nc(-c3ccc4c(c3)OCCO4)co2)c1")
"inactive"
>>> class("CCCCCCNC(=O)Oc1ccc(/C(=C(\\C)c2ccccc2)c2ccc(OCCN(CC)CC)cc2)cc1")
"inactive"
>>> class("N#Cc1c2c(nc3n[nH]c(N)c13)CCCC2")
"inactive"
>>> class("COc1ccc2nc3cc(Cl)ccc3c(N3CCN(c4ccnc(N5CCN(C)CC5)n4)CC3)c2c1")
"inactive"

Asked: Recorded call for CN(C)CCCC(=O)Nc1ccc(Cn2nnc3c2C(=O)c2nnn(Cc4ccc(NC(=O)CCCN(C)C)cc4)c2C3=O)cc1 ?
Given back: inactive

* * *

Below, each of the molecules is paired with its reported growth value.
- System: A498 renal
- procedure-text: NCI-60 one-dose screen, 48 h (100 = growth as untreated, 0 = no growth, -100 = all killed)
- condition-label: 10 µM unless noted
About 83,000 compounds went through this panel and 20% of them were active in at least one assay; those are over-represented in the sample as a whole.
Reply numerically in %, unit not repeated.

>>> numeric_value("CCN(CC)CCCNc1cc(OC)cc2nc3cc(Cl)ccc3nc12")
14.3
>>> numeric_value("C=CCSc1nnc(-c2ccc(C(C)(C)C)cc2)n1-c1cccc(C(F)(F)F)c1")
84.7
>>> numeric_value("CC(C)CC(CC1=CCC2CC1C2(C)C)C1=C(O)C(C)(C)C(=O)C(C)(C)C1=O (stereo not given)")
-17.9
>>> numeric_value("CN1CCCCC1CCN1c2ccccc2Sc2ccc(Br)cc21 (stereo not given)")
66.7
>>> numeric_value("Cc1cc(=O)oc2cc(Oc3nc(-c4ccc(Cl)cc4)cn4c(-c5ccc(Cl)cc5)cnc34)ccc12")
105
>>> numeric_value("O=C1c2c[n+](Cc3ccccc3)ccc2-c2nc3ccccc3c3ccnc1c23")
-56.1

Notebook: Cc1cc(-c2nc3ccccc3s2)ccc1NC(=O)COc1ccc(Cl)cc1 , growth read as 106

Notebook: CN[C@@]12CC3(C=CC(=O)C=C3)O[C@]1(Cc1ccc(OC)cc1)N(C)C(=O)N2 , growth read as 75.6

Notebook: CC1CN(Cc2ccco2)C(=S)N(c2ccccc2)C1=O (stereo not given) , growth read as 100

Notebook: C[C@@H]1CCC2=C(CCC[C@]2(C)C(=O)O)[C@@]1(C)CCc1ccoc1 , growth read as 83.3

* * *

Below, each of the compounds is paired with its reported growth value.
- Test system: SR leukemia
- procedure-text: NCI-60 one-dose screen, 48 h (100 = growth as untreated, 0 = no growth, -100 = all killed)
- condition-label: 10 µM unless noted
- Experimental: Growth inhibition of the SR human tumor cell line is measured as a screen for anti-cancer activity. Cells are grown in 96 well plates and exposed to the test compound for 48 hours. Compounds are tested at a single concentration, which is 10^-5 M for most compounds. The reported endpoint is percent growth (GI% or GIPRCNT), where numbers from 0 - 100% represent growth inhibition, and numbers from -100% - 0 represent cell death. For example, a value of 40 represents 60% growth inhibition. […]
Compounds without any hit were thinned out: in the full panel of roughly 83,000, 20% have a hit.
Reply numerically in %, unit not repeated.

Notebook: CN(C)c1ccc(/C=C(\C#N)c2nc3ccccc3s2)cc1 , growth read as 87.5

Notebook: CC1(C)OCC2OC3(C(=O)O)OC(C)(C)OC3C2O1 (stereo unspecified) , growth read as 101

Notebook: C=C1CCC2C3(C)COC(c4ccccc4Br)OC3CCC2(C)C1C/C=C1/C(=O)OCC1OC(C)=O (stereo unspecified) , growth read as -40.9

Notebook: COc1ccc(/C=C2\N=C3Sc4cc(Cl)ccc4C(=O)N3C2=O)cc1 , growth read as 88.4

* * *

- Test system: NCI-H522 lung
- procedure-text: NCI-60 one-dose screen, 48 h
- condition-label: 10 µM unless noted
Compounds without any hit were thinned out: in the full panel of roughly 83,000, 20% have a hit. Active and inactive are the calls of the source. How the source made its calls: active means growth percent below 10; inactive means the rest.
Your response should consist of one outcome taken from t (active), f (inactive)

Example cases with answers are listed next.
>>> class("O=S(=O)(Nc1ccc(F)c(Cl)c1)c1ccc(-c2cnc(C3CC3)o2)cc1")
"t"
>>> class("Cc1ccc(N)cc1F")
"f"
>>> class("O=C(Nc1ccc(F)cc1)Nc1ccc(CCO)cc1")
"f"
>>> class("COc1ccc(C(=O)COc2ccc(/C=C3\\Oc4ccc(Cl)cc4C3=O)cc2)cc1")
"f"
>>> class("Cc1ccc(/C=C2\\Oc3cc(OCC(=O)c4ccc(Cl)cc4)ccc3C2=O)cc1")
"f"

Asked: Recorded call for Cc1[nH]n(-c2ccccc2)c2nc3nncc3c(-c3ccc(Cl)cc3)c12 ?
Given back: f

Asked: Recorded call for Cc1cc(N/N=C/c2nc(-c3ccc(Cl)cc3)oc2C)c2cc(Cl)ccc2n1 ?
Given back: t

Asked: Recorded call for C[C@@]1(N2C(=O)OC[C@@H]2c2ccccc2)C(=O)N([C@H](CC(=O)N2CCC(N3CCCCC3)CC2)C(=O)NCc2cccc(C(F)(F)F)c2)[C@@H]1/C=C/c1ccccc1 ?
Given back: t

Asked: Recorded call for COC1/C=C\OC2(C)Oc3c(C)c(O)c4c(O)c(c(CN(C)CCO)c(O)c4c3C2=O)NC(=O)/C(C)=C\C=C/C(C)C(O)C(C)C(O)C(C)C(OC(C)=O)C1C (centres undefined) ?
Given back: f

* * *

- Tested on: SR leukemia
- procedure-text: NCI-60 one-dose screen, 48 h
- condition-label: 10 µM unless noted
The panel holds about 83,000 compounds, 20% with a hit somewhere; the sample as a whole holds those more often. Calls of active or inactive are those of the source. How the source made its calls: active means growth percent below 10; inactive means the rest.
Your response should consist of one outcome taken from yes (1) (active), no (0) (inactive)

Example cases with answers are listed next.
>>> class("COc1ccc(S(=O)(=O)NCCCNc2nccc(-c3c(-c4cccc(N)c4)nc4sccn34)n2)cc1")
"no (0)"
>>> class("C=C1C(=O)O[C@H]2[C@H]1CC/C(Cn1cc(Cn3ccc4cc(Cl)ccc43)nn1)=C\\CC[C@@]1(C)O[C@@H]21")
"yes (1)"
>>> class("CC1=C(C)C(=O)OC([C@](C)(O)[C@]2(O)CC[C@@]3(O)[C@@H]4C[C@H]5O[C@]56CC=CC(=O)[C@]6(C)[C@H]4CC[C@]23COC(=O)c2ccc(C)o2)C1 (some centres undefined)")
"yes (1)"

// switching to the query molecule
Asked: Recorded call for COc1ccc(-c2cc(-c3ccc(N(C)C)cc3)nc(NC(=O)c3ccncc3)n2)cc1 ?
Given back: no (0)

* * *

- System: DU-145 prostate
- procedure-text: NCI-60 one-dose screen, 48 h
- condition-label: 10 µM unless noted
Compounds without any hit were thinned out: in the full panel of roughly 83,000, 20% have a hit. Activity calls are given as the source filed them. The calls were made as follows: active = growth percent below 10; inactive = the rest.
Your response should consist of one outcome taken from Yes for active, No for inactive

>>> class("CC(C)(C)n1cc(-c2ccnc(NCCCNS(=O)(=O)c3cccc4ccccc34)c2)c(-c2cccc(O)c2)n1")
"No"
>>> class("CCCCCCCCCCCCCCCCCCNC(=O)[C@H]1CSC(c2ccc(F)c(OC)c2)N1 (stereo partly specified)")
"No"
>>> class("OC(c1cc(-c2ccccc2)nc2ccc(Cl)cc12)C1CCCCN1 (stereo unspecified)")
"No"
>>> class("COc1ccc2nc3cc(Cl)ccc3c(N3CCN(c4ccnc(N5CCN(C)CC5)n4)CC3)c2c1")
"Yes"
>>> class("CC1CN(C(C)C)C(=S)N(c2ccccc2)C1=O (stereo unspecified)")
"No"

// switching to the query molecule
Asked: Recorded call for O=[N+]([O-])c1c(F)cccc1Nc1cccc(F)c1 ?
Given back: No

* * *

- Tested on: UO-31 renal
- procedure-text: NCI-60 one-dose screen, 48 h
- condition-label: 10 µM unless noted
- Procedure: Growth inhibition of the UO-31 human tumor cell line is measured as a screen for anti-cancer activity. Cells are grown in 96 well plates and exposed to the test compound for 48 hours. Compounds are tested at a single concentration, which is 10^-5 M for most compounds. The reported endpoint is percent growth (GI% or GIPRCNT), where numbers from 0 - 100% represent growth inhibition, and numbers from -100% - 0 represent cell death. For example, a value of 40 represents 60% growth inhibition. […]
This is part of a sample that, as a whole, favours compounds with a hit. Of some 83,000 tested, about 20% had one in any assay. Active and inactive are the calls of the source. The calls were made as follows: active = growth percent below 10; inactive = the rest.
Your response should consist of one outcome taken from Y = active, N = inactive

Asked: Recorded call for C=CC[N+]1(CC)CCN=C1CCCCCCCCCCCCCCCCC (stereo unspecified) ?
Given back: Y

Asked: Recorded call for COc1ccc(-n2c(C)nc3c(c(C)nn3-c3ccccc3)c2=O)cc1 ?
Given back: N

Asked: Recorded call for Cc1cc2cc3cc(C)c(N(C)C)cc3nc2cc1N(C)C ?
Given back: N

Asked: Recorded call for O=c1ccc2cc3ccccc3cc2[nH]1 ?
Given back: N

Asked: Recorded call for CC(=O)Nc1ccc2c(c1)c(NC(C)=O)nn2C(=O)Nc1ccc(Cc2ccccc2)cc1 ?
Given back: N

Asked: Recorded call for COc1ccc(N(Cc2cc(OC)c(OC)c(OC)c2)C2OC(=O)c3ccccc32)cc1 (stereo unspecified) ?
Given back: N

Asked: Recorded call for COc1ccc(/C=C2\CN(C(=O)CCN3CCC(=NO)CC3)C/C(=C\c3ccc(OC)cc3)C2=O)cc1 ?
Given back: Y

Asked: Recorded call for Cn1c2c(Cl)c(Cl)ccc2c2ccn3c(=O)c4ccccc4nc3c21 ?
Given back: N

Asked: Recorded call for O=C1Nc2ccccc2/C1=C/C(=N/c1nnc(-c2ccc(Cl)cc2)s1)c1ccccc1 ?
Given back: Y

Asked: Recorded call for COc1ccc(-c2c(C)noc2-c2ccc(O)cc2O)cc1 ?
Given back: N

Asked: Recorded call for CCOC(=O)C(CC)n1c(=O)c2cc(OC)c(OC)cc2c2cnc3[nH]ccc3c21 (stereo unspecified) ?
Given back: N

Asked: Recorded call for COc1cc(-c2c3c(nc4c2c(C)nn4-c2ccccc2)-c2ccccc2C(=O)C3=O)cc(OC)c1OC ?
Given back: N

Asked: Recorded call for COc1ccc(-c2cn3c(ccc4ccccc43)n2)cc1 ?
Given back: N

Asked: Recorded call for O=c1[nH]c(-c2ccccn2)nc2sc3c(c12)CCCCC3 ?
Given back: N

Asked: Recorded call for NC(=S)N/N=C/c1cc(-c2cccc(N)c2)ccn1 ?
Given back: N

Asked: Recorded call for Cc1cc(Nc2nc(N3CCN(C)CC3)nc3ccccc23)n[nH]1 ?
Given back: N
